Target: recombinant human TFPI (tissue factor pathway inhibitor) (human, UniProt P10646 29-304)
Assay: cell-based or functional assay
Below, each entry is listed alongside its reported A405, TF/FVIIa/FX complex assay (FX 5 nM), Ab 50 nM.
Output spec: single numeric token, no unit.

binder="clone 1023 (antibody, V domains shown, scFv on yeast at selection; human IgG4/kappa IgG as purified) VH: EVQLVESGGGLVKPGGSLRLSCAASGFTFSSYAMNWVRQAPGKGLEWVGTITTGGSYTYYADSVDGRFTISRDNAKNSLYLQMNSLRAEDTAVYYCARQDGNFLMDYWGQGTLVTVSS VL: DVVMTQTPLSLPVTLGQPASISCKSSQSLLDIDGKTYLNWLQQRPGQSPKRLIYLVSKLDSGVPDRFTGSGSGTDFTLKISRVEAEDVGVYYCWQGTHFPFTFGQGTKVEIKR" test_result=0.652

Request: Returns the measured A405, TF/FVIIa/FX complex assay (FX 5 nM), Ab 50 nM for the input binder. Input: clone 3 (antibody, V domains shown) VH: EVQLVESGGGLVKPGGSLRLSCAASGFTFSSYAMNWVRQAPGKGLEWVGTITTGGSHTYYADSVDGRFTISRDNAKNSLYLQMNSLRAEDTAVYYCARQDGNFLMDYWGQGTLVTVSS VL: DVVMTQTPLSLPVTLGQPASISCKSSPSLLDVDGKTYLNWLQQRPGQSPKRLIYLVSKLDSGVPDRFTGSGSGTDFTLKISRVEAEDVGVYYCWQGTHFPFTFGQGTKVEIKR
Result: 0.743

Request: Input clone 8 (antibody, V domains shown) VH: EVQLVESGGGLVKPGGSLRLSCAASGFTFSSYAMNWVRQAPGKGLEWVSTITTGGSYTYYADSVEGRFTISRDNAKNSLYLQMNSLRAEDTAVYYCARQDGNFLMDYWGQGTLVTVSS VL: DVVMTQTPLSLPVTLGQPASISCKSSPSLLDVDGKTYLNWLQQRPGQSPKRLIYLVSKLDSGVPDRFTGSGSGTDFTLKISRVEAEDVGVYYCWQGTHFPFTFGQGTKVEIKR
Result: 0.673
